Value source: patent US9833497B2

- Test system: Aeromonas hydrophila
- method.description: MIC against Gram-negative bacteria: Aeromonas hydrophila
- Type: cell-based
- assay.conditions: Aeromonas hydrophila; 96-well plate, 5×10^5 CFU/mL, 37° C., 10 h
measurement.kind: MIC against A. hydrophila (µg/mL)
Entry rule: numbers only, all in µg/mL.

PRT1336 (DCNQCPGGFSNPCSGNGQCADSLGGNGTCICEEGFQGSQCQ; listed as Homo sapiens)	12.5
PRT1298 (PINTCIQNPCQHGGTCHLSDSHKDGFSCSCPLGFEGQRCE; listed as Homo sapiens)	12.5
PRT1211 (LSPYCKDEPCKNGGTCFDSLDGAVCQCDSGFRGERCQ; listed as Homo sapiens)	25
PRT1257 (CMNKDHGCAHICRETPKGGVACDCRPGFDLAQNQKDC; listed as Homo sapiens)	25
PRT1251 (CAFVCADCGSGHCDFQSGRCLCSPGVHGPHCN; listed as Homo sapiens)	25

query: Request the reported MIC against A. hydrophila associated with PRT1239 (TIPICEGPDACQKDEVCVKPGLCRCKPGFFGAHCS; listed as Homo sapiens)
result: 12.5

query: How about PRT1307 (HECPGGAETPCNGHGTCLDGMDRNGTCVCQENFRGSACQ; listed as Homo sapiens) ?
result: 50

query: How about PRT1215 (SNDPCVEKPCPGDMQCVSYEASRRPFLCQCPPGKLGECS; listed as Homo sapiens) ?
result: 12.5
